# TARGET ENTITY: PARP14 MD2 (Homo sapiens, UniProt Q460N5)
# Sequence (Q460N5 1003-1190 limits assumed): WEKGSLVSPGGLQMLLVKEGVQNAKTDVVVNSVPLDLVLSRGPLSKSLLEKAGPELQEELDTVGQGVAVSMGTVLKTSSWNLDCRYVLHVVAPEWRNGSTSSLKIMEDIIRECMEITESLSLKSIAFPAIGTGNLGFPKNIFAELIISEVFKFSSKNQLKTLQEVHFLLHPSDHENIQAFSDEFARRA
# ASSAY: AlphaScreen competitive binding assay, displacement of ADP-ribose peptide from PARP14 MD2
# Set-up: PARP14 MD2 (second MD of PARP14)
# STATED CONDITIONS: text and figures; read-out: PARP14 MD2 IC50
ASSAY ENDPOINT: IC50 (µM)
Return type: number; implicit unit µM.

Quick check: IC50 of CC(=O)Nc1ccccc1-c1cccc2c1sc1ccccc12 [compound 27] ? 2.5

Would you kindly share the measured IC50 for CC(=O)Nc1ccccc1-c1cccc2c1[nH]c1ccc(Cl)cc12 [compound 38] ? 3

I am curious: what IC50 value has been reported for CC(=O)Nc1ccccc1-c1cccc2c3c([nH]c12)CCCC3 [compound 44] ? 1.1

---

# TARGET ENTITY: PARP14 MD2 (Homo sapiens, UniProt Q460N5)
# ASSAY: Biophysical KD determination (Bio-Layer Interferometry or Isothermal Titration Calorimetry)
# Type: binding
# Parameters: PARP14 MD2 (second MD of PARP14)
# STATED CONDITIONS: Table 2, BLI or ITC
Threshold-based label: Kd under 2000 nM gives class 1, Kd not under 2000 nM gives class 0.

For Cc1ccc(CC(=O)Nc2ccccc2-c2cccc3c2[nH]c2ccccc23)cn1 , is the recorded Kd below the cut-off of 2000 nM? class 0

Confirm or reject: Kd of N#Cc1ccc(F)c(CS(=O)(=O)Nc2ccccc2-c2cccc3c2[nH]c2ccccc23)c1 lies strictly below 2000 nM class 1

Dear colleague, could you confirm whether Kd of O=C(Cc1cccnc1)Nc1ccccc1-c1cccc2c1[nH]c1ccccc12 falls below 2000 nM? Thanks. class 1

Given N#Cc1cccc(CS(=O)(=O)Nc2ccccc2-c2cccc3c2[nH]c2ccccc23)c1 , is recorded Kd strictly lower than 2000 nM? class 1

Strictly below 2000 nM in Kd? O=C(Cc1cnccn1)Nc1ccccc1-c1cccc2c1[nH]c1ccccc12 class 0

---

Please go through the items and note down their pIC50.
# TARGET ENTITY: PARP14 MD2 (Homo sapiens)
# ASSAY: AlphaScreen competitive binding assay, displacement of ADP-ribose peptide from PARP14 MD2
# Set-up: PARP14 MD2 (second MD of PARP14)
# STATED CONDITIONS: Table 1; AlphaScreen, PARP14 MD2; read-out: IC50
# Description: Compounds were profiled for binding activity with PARP14 MD2 through a competitive (AlphaScreen™) binding assay measuring the displacement of ADP-ribose peptide from PARP14 MD2.[11a]
// returns pIC50 (minus log10 of molar concentration), number only

Given the compound O=C(Nc1ccccc1-c1cccc2c1[nH]c1ccccc12)C(F)(F)F , what is its reported pIC50? 5.96

# query: pIC50 of entry O=S(=O)(Cc1ccccc1)Nc1ccccc1-c1cccc2c1[nH]c1ccccc12 5.44

Need pIC50 of O=C(Cc1ccccc1)Nc1ccccc1-c1cccc2c1[nH]c1ccccc12 , thanks. 5.12

Quick check: pIC50 of CC(C)(C)NC(=O)Nc1ccccc1-c1cccc2c1[nH]c1ccccc12 ? 5.14

# pIC50 lookup, item CCCS(=O)(=O)Nc1ccccc1-c1cccc2c1[nH]c1ccccc12 5.54

May I ask what pIC50 has been recorded for CCC(=O)Nc1ccccc1-c1cccc2c1[nH]c1ccccc12 ? 6.00

Can you look up the measured pIC50 of Cc1ccc(-c2cccc3c2[nH]c2ccccc23)c(NS(C)(=O)=O)c1 for me? 5.96

Report pIC50 for COc1ccc(C(=O)Nc2ccccc2-c2cccc3c2[nH]c2ccccc23)cc1 please. 5.05

May I ask what pIC50 has been recorded for CC(=S)Nc1ccccc1-c1cccc2c1[nH]c1ccccc12 ? 4.98

Provenance of the data: paper PMC6008491
